- System: SK-MEL-2
- Test summary: NCI tumour cell line growth inhibition, 48 h
Active and inactive are the calls of the source. Cut-off read from the data, not from the text of the source: active = GI50 up to about 1.1 µM and inactive = higher.
Assay metric: GI50

The reported value for O=C1Cc2ccccc2CCc2ccccc21 in terms of GI50 is 64.1 µM (inactive)

The reported value for Nc1ncnc2sc(Nc3ccccc3)nc12 in terms of GI50 is > 100 µM (inactive)

The reported value for O=C(CC(=O)C1CCOC1=O)C(=O)Nc1ccc(Cl)cc1Cl (stereo unspecified) in terms of GI50 is > 100 µM (inactive)

The reported value for CCOC(=O)/C(C#N)=C/Nc1c(C)n(C)n(-c2ccccc2)c1=O in terms of GI50 is > 100 µM (inactive)

The reported value for C/C(=C\C(=O)O)C(=O)N(C)c1ccccc1I in terms of GI50 is > 100 µM (inactive)

The reported value for O=C(Nc1nccs1)c1cc(C2=CC=CC([N+](=O)[O-])C=C2)nc(S)n1 (stereo unspecified) in terms of GI50 is > 100 µM (inactive)

The reported value for COC(=O)c1cc(C)ccc1CC(Cc1ccc(C)cc1)C(=O)OC (stereo unspecified) in terms of GI50 is 25.1 µM (inactive)

The reported value for Nc1ccccc1CCN1CCN(CCCc2ccccc2)CC1 in terms of GI50 is > 100 µM (inactive)

The reported value for C[N+](C)(C)CCC(=O)N1C/C(=C\c2ccccc2)C(=O)/C(=C/c2ccccc2)C1 in terms of GI50 is 15.8 µM (inactive)

The reported value for CCN(CC)CCCC(C)Nc1c(Sc2cnc3cc(Cl)ccc3c2NC(C)CCCN(CC)CC)cnc2cc(Cl)ccc12 (stereo unspecified) in terms of GI50 is 1.85 µM (inactive)

The reported value for COc1ccc(OC)c2c1C1CCC(=O)N1CN2C(C)=O (stereo unspecified) in terms of GI50 is > 100 µM (inactive)

====

- Test system: SF-268
- Test summary: NCI tumour cell line growth inhibition, 48 h
Calls of active or inactive are those of the source. Rule as the data show it: active = GI50 up to about 1.1 µM and inactive = higher.
Assay metric: GI50

The reported value for CCOC(=O)/C=C(/C(=O)OCC)n1ccc(=O)n(Cc2cn(COCCOC(C)=O)nn2)c1=O in terms of GI50 is 18.2 µM (inactive)

The reported value for CCN(CC)CCN1C(=O)C(=O)N(c2cccc3ccccc23)C1=O in terms of GI50 is > 10 µM (inactive)

The reported value for CCCCCCCCCCN(CCCCCCCCCC)C(=O)COc1c2cc(C(C)(C)C)cc1Cc1cc(C(C)(C)C)cc(c1OCC(=O)N(CCCCCCCCCC)CCCCCCCCCC)Cc1cc(C(C)(C)C)cc(c1OCC(=O)N(CCCCCCCCCC)CCCCCCCCCC)Cc1cc(C(C)(C)C)cc(c1OCC(=O)N(CCCCCCCCCC)CCCCCCCCCC)C2 in terms of GI50 is 15.1 µM (inactive)

The reported value for N#CC1CC2(CCN1C(=O)c1ccccc1)OCCO2 (centres undefined) in terms of GI50 is > 100 µM (inactive)

====

- Test system: T47D
- Test summary: NCI tumour cell line growth inhibition, 48 h
Where a name gives a salt, the structure may show the parent alone. Calls of active or inactive are those of the source. Cut-off read from the data, not from the text of the source: active = GI50 up to about 1.1 µM and inactive = higher.
Assay metric: GI50

Item CC1(C)[C@@H]2CC[C@@]1(C)C1(S[S+]1[O-])C21Cc2ccccc2C1 (some centres undefined) ; assay system T47D; GI50 reported as 21.6 µM (inactive)

Item Brc1ccccc1/C=C\C1(c2ccccc2)OCCO1 ; assay system T47D; GI50 reported as 15.2 µM (inactive)

Item O=c1nc2n(cc1/C=C\Br)C1CC(O)C(CO2)O1 (centres undefined) ; assay system T47D; GI50 reported as > 100 µM (inactive)

Item CC(=O)OCCn1c(Cc2ccc(Cl)cc2)nn(C(C)=O)c1=O ; assay system T47D; GI50 reported as > 100 µM (inactive)

Item COc1ccc(-c2nc(Nc3ccccc3)sc2Cc2sc(Nc3ccccc3)nc2-c2ccc(OC)cc2)cc1 ; assay system T47D; GI50 reported as 38.5 µM (inactive)

Item CCCCCCCCCCN(CCCCCCCCCC)C(=O)COc1c2cc(C(C)(C)C)cc1Cc1cc(C(C)(C)C)cc(c1OCC(=O)N(CCCCCCCCCC)CCCCCCCCCC)Cc1cc(C(C)(C)C)cc(c1OCC(=O)N(CCCCCCCCCC)CCCCCCCCCC)Cc1cc(C(C)(C)C)cc(c1OCC(=O)N(CCCCCCCCCC)CCCCCCCCCC)C2 ; assay system T47D; GI50 reported as 16.1 µM (inactive)

Item C=CCCCCCCC#CCCCCCCCCCC[C@@H]1C(=O)O[C@H](C)[C@@H]1O.CCCCCCCCC#CCCCCCCCCCC[C@@H]1C(=O)O[C@H](C)[C@@H]1O ; assay system T47D; GI50 reported as 14.9 µM (inactive)

Item O=[N+]([O-])c1ccc2nc(O)n[n+]([O-])c2c1 ; assay system T47D; GI50 reported as > 100 µM (inactive)

Item CCOc1cc(NC(C)=O)ccc1C(=O)NN1C(=O)CSC1c1ccccc1 (centres undefined) ; assay system T47D; GI50 reported as 25.7 µM (inactive)

Item Nc1ccc2c(c1)C(=O)c1ccc(F)cc1-2 ; assay system T47D; GI50 reported as > 100 µM (inactive)

Item CCOC(=O)c1c(SC(=O)c2ccc(Cl)cc2)n(-c2ccccc2)c(=S)n(-c2ccccc2)c1=O ; assay system T47D; GI50 reported as > 100 µM (inactive)

Item CCOC(=O)CSc1nnc(C(Sc2nc(-c3ccccc3)c(-c3ccccc3)[nH]2)C(C)C)n1-c1ccccc1 (centres undefined) ; assay system T47D; GI50 reported as 28.3 µM (inactive)

Item COc1ccc(C(=O)/C=C/c2ccc3c(c2)OCO3)c(OCc2ccccc2)c1 ; assay system T47D; GI50 reported as > 43.5 µM (inactive)

Item NCCCNCCCCNCCCN [SPERMINE TETRAHYDROCHLORIDE] ; assay system T47D; GI50 reported as 2.36 µM (inactive)

Item COC1(OC)CCc2c(sc3ncnc(Nc4cccc(Br)c4)c23)C1 ; assay system T47D; GI50 reported as 23.1 µM (inactive)

Item CCCCCCC(C)c1ccc2c(c1)C(=O)c1nc3ccncc3c(=O)n1-2 (centres undefined) ; assay system T47D; GI50 reported as 3.63 µM (inactive)

Item COc1ccc(OC)c2c1C1CCC(=O)N1CN2C(C)=O (centres undefined) ; assay system T47D; GI50 reported as > 100 µM (inactive)

Item C/C(=C\C(=O)O)C(=O)N(C)c1ccccc1I ; assay system T47D; GI50 reported as > 100 µM (inactive)

Item C=CCSS/C=C/C[S+]([O-])CC=C (centres undefined) ; assay system T47D; GI50 reported as > 56.1 µM (inactive)
